Molecular target: 3-hydroxy-3-methylglutaryl-coenzyme A reductase (Rattus norvegicus, UniProt P51639)
Sequence (P51639 whole entry): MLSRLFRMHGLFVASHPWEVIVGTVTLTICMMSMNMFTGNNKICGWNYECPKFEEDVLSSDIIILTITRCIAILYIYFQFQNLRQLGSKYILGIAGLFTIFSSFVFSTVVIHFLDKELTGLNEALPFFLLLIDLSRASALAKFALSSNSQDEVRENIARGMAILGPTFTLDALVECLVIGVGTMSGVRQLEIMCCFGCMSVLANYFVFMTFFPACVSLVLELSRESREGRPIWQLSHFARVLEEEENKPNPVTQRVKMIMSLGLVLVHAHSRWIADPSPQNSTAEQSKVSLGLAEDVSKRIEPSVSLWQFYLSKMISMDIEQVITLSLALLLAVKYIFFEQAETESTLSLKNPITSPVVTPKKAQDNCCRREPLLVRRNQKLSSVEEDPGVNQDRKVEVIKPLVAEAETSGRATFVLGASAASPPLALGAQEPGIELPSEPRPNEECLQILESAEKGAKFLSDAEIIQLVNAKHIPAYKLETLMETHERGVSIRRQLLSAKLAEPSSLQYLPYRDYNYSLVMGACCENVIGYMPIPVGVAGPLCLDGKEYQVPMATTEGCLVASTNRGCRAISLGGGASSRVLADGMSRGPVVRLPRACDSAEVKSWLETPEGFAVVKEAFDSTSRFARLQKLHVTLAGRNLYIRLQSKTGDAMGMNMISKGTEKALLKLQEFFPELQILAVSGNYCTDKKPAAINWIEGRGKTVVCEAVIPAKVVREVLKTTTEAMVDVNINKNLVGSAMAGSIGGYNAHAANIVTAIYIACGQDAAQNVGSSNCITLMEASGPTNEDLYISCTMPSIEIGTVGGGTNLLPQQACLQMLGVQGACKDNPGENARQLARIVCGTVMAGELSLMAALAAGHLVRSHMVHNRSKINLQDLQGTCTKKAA
Experiment: Inhibitory activity against partially purified rat liver HMG-CoA reductase in vitro; 0.0015-0.0049
Experimental Readout: pIC50
By convention, pIC50 is the negative base-10 log of a molar concentration.

Using known records, supply pIC50 for O=C(O)C[C@H](O)C[C@H](O)/C=C/c1c2c(nn1-c1ccc(F)cc1)C(Cc1ccc(-c3ccccc3)cc1)CCC2 (stereo partly specified) 8.52
